B1: Receptor-interacting serine/threonine-protein kinase 2, residues 438 to 518; numbered along this chain, O43353 (parent)
chain: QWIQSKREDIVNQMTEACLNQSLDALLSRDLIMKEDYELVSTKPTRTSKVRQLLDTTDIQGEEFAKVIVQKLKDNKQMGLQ

Variants of: B1
assay.info: abundance fitness (aPCA) (normalised: wild type 0, dead -1); higher = more abundant; growth selection in yeast, the domain comes from the species named
test.conditions: Homo sapiens
Would you please tag the item true when its abundance fitness is -0.2 or above, and false when it is below?

Does the reported abundance fitness for `I59Y` fall at or above the -0.2 mark?
false

Is it the case that `S41V` has abundance fitness reaching or exceeding -0.2?
true

Given `S28F` , state whether its abundance fitness is at least -0.2.
false

Check this variant for abundance fitness at or above -0.2: `L53P`
false

Quick check, abundance fitness >= -0.2? `A25P`
false

Does the variant `D24G` have recorded abundance fitness that is -0.2 or more?
false

Can `L31D` be said to have abundance fitness at or above -0.2?
false

Can `E38S` be said to have abundance fitness at or above -0.2?
false

Say whether `V50R` shows abundance fitness of -0.2 or more.
false

Form field: abundance fitness at least -0.2? Entry: `L23N`
false

Determine whether measured abundance fitness meets or exceeds -0.2 for `R29P`
false

Given `K43W` , state whether its abundance fitness is at least -0.2.
false

Please tell me: is the variant `V40G` at or over -0.2 in terms of abundance fitness?
false

Dear colleague, could you confirm whether `K76R` has abundance fitness at or above -0.2?
true

Is the recorded value of abundance fitness equal to or greater than -0.2 for this variant? `T45D`
true

Could you please find out whether `D58Y` has abundance fitness that meets -0.2 or exceeds it?
false

Is abundance fitness for `D24P` at or above -0.2?
false

Textbook exercise: given the entry `E35K` , state whether its abundance fitness is greater than or equal to -0.2.
true

Check this variant for abundance fitness at or above -0.2: `Q77H`
true

Quick check, abundance fitness >= -0.2? `T56G`
false

Does the reported abundance fitness for `K76Y` fall at or above the -0.2 mark?
false

Has `L54F` a recorded abundance fitness greater than or equal to -0.2?
false

Could you verify whether the entry `D55L` shows abundance fitness of no less than -0.2?
true

Is reported abundance fitness greater than or equal to -0.2 here: `L72M`
true

Reported abundance fitness reaches at least -0.2 for `K76P` ?
false

Test whether the variant `V67I` records abundance fitness of -0.2 or higher.
true

Threshold query (abundance fitness >= -0.2) on `L53C`
false

Does the reported abundance fitness for `P44G` fall at or above the -0.2 mark?
false

Exam item: decide whether the reported abundance fitness for `D58A` is at least -0.2.
true

Given the entry `A25D` , answer whether its abundance fitness meets or surpasses -0.2.
true

Has `R29W` a recorded abundance fitness greater than or equal to -0.2?
false

Please indicate if the recorded abundance fitness for `S48F` meets or exceeds -0.2.
false

Check if abundance fitness >= -0.2 (inclusive). Item: `V69F`
true

Is it the case that `G61K` has abundance fitness reaching or exceeding -0.2?
true

Exam item: decide whether the reported abundance fitness for `E35T` is at least -0.2.
true

Is the recorded value of abundance fitness equal to or greater than -0.2 for this variant? `K76G`
true

hey, is abundance fitness for this one >= -0.2? `L27R`
true

Does `I68G` have a reported abundance fitness of at least -0.2?
false

Decide: abundance fitness of `S41I` >= -0.2?
true

Please indicate if the recorded abundance fitness for `V50H` meets or exceeds -0.2.
false

Assess whether reported abundance fitness for `I59V` sits at -0.2 or higher.
true

Decide: is the reported value of abundance fitness for `L39A` equal to or greater than -0.2?
true

Is reported abundance fitness greater than or equal to -0.2 here: `D74Q`
false

Hi team, for `G61P` , is the recorded abundance fitness at or above -0.2?
false

Dear colleague, could you confirm whether `R51G` has abundance fitness at or above -0.2?
false

Could you verify whether the entry `K71H` shows abundance fitness of no less than -0.2?
true

hey, is abundance fitness for this one >= -0.2? `L27C`
false

Reported abundance fitness reaches at least -0.2 for `T47F` ?
false

Check the entry `G61D` : does abundance fitness equal or exceed -0.2?
true

Does the reported abundance fitness for `N75Q` fall at or above the -0.2 mark?
true

Is abundance fitness for `D55W` at or above -0.2?
false

Exam item: decide whether the reported abundance fitness for `S22F` is at least -0.2.
false

Quick check, abundance fitness >= -0.2? `V67F`
false

Please indicate if the recorded abundance fitness for `D24T` meets or exceeds -0.2.
false

Decide: abundance fitness of `S48P` >= -0.2?
false

Item `L54E` with abundance fitness of -0.2 or above?
false

Hi team, for `S41E` , is the recorded abundance fitness at or above -0.2?
false

Tell me whether abundance fitness is at least -0.2 here: `E63H`
false

Dear colleague, could you confirm whether `E38Y` has abundance fitness at or above -0.2?
false

Is abundance fitness at least -0.2? Consider `F64Q`
true

Is it the case that `V67D` has abundance fitness reaching or exceeding -0.2?
false

Can `T47M` be said to have abundance fitness at or above -0.2?
false

Check the entry `K49S` : does abundance fitness equal or exceed -0.2?
false

Form field: abundance fitness at least -0.2? Entry: `Q52L`
false

In plain terms: is recorded abundance fitness at least -0.2 for `L27A` ?
false

Does the variant `K34E` have recorded abundance fitness that is -0.2 or more?
true

Kindly determine if abundance fitness recorded for `Q21S` is above or exactly -0.2.
true

Tell me whether abundance fitness is at least -0.2 here: `Y37H`
false

API: above_or_equal(metric=abundance fitness, cutoff=-0.2) for item `S28M`
false

Assess whether reported abundance fitness for `F64G` sits at -0.2 or higher.
false

Kindly determine if abundance fitness recorded for `N75A` is above or exactly -0.2.
false

Could you please find out whether `G61L` has abundance fitness that meets -0.2 or exceeds it?
false

Form field: abundance fitness at least -0.2? Entry: `D24K`
false

Kindly determine if abundance fitness recorded for `E35V` is above or exactly -0.2.
false

Exam item: decide whether the reported abundance fitness for `K49A` is at least -0.2.
false

Form field: abundance fitness at least -0.2? Entry: `Q60C`
true

Could you please find out whether `V69E` has abundance fitness that meets -0.2 or exceeds it?
true

I'd appreciate it if you could say whether `L39P` has abundance fitness at least equal to -0.2.
false

Exam item: decide whether the reported abundance fitness for `L23M` is at least -0.2.
false

Confirm if abundance fitness reported for the variant `F64Y` is -0.2 or above.
false

Say whether `M33F` shows abundance fitness of -0.2 or more.
false

Textbook exercise: given the entry `L26R` , state whether its abundance fitness is greater than or equal to -0.2.
false

Is abundance fitness at least -0.2? Consider `K73H`
false

Check the entry `K73R` : does abundance fitness equal or exceed -0.2?
true

Could you please find out whether `Q60F` has abundance fitness that meets -0.2 or exceeds it?
false

hey, is abundance fitness for this one >= -0.2? `V69L`
false

Can `T57C` be said to have abundance fitness at or above -0.2?
true

Is abundance fitness at least -0.2? Consider `L54P`
false

Determine whether measured abundance fitness meets or exceeds -0.2 for `V40P`
false

Is reported abundance fitness greater than or equal to -0.2 here: `E38N`
false

Attribution: the Human Domainome abundance scans (Beltran et al. 2025)
